target: canine TRPM8 (Canis lupus familiaris, UniProt Q1A7N1); experiment: In Vitro Canine TRPM8 Functional Assay (Ca2+ fluorescence, icilin activation); format: cell-based; conditions: HEK293 cells stably expressing canine TRPM8; icilin activation; eight-point dose-response; read-out: IC50
Sequence (Q1A7N1 1-1104): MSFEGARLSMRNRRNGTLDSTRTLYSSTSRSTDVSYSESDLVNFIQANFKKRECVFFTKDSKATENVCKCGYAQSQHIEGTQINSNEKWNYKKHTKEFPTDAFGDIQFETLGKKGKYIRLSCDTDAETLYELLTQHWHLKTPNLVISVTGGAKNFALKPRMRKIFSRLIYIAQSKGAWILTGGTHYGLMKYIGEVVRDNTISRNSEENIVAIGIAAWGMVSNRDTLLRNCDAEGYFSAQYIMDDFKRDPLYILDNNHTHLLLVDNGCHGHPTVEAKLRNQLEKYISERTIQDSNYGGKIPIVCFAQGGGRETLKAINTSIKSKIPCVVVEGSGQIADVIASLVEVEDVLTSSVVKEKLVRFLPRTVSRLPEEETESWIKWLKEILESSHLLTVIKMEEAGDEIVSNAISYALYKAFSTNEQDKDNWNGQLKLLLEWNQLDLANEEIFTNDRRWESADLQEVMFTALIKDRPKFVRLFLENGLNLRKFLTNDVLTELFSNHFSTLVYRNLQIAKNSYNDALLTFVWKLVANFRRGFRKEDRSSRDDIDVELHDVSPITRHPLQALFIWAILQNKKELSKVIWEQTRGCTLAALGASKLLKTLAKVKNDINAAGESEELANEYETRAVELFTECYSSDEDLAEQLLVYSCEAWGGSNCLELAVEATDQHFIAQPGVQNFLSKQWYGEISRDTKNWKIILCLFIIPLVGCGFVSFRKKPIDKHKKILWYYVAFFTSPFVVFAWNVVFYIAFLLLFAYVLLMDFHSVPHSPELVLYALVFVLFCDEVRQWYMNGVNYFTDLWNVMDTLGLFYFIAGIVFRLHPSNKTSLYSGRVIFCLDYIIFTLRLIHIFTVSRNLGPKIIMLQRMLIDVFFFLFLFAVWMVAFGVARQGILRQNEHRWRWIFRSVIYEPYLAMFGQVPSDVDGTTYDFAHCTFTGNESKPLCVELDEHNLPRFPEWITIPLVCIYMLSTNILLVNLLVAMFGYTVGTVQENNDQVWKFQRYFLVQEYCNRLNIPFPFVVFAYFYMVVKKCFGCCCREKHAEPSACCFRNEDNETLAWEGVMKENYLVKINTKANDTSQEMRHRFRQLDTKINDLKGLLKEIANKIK
pIC50: −log10 of the molar value.
Could you label it 1.0 if measured pIC50 is 8 or higher, and 0.0 otherwise?

>>> class_label("O=S(=O)(c1cccs1)N(Cc1ccc(F)c(C(F)(F)F)c1)c1sc2ccccc2c1Br")
1.0
>>> class_label("O=S(=O)(c1ccccc1)N(CC1CCCCC1)c1cc2ccccc2s1")
0.0
>>> class_label("Cc1c(N(Cc2ccc(F)c(Cl)c2)S(=O)(=O)c2ccc(C(=O)O)cc2)sc2ccccc12")
1.0
>>> class_label("COC(=O)CCS(=O)(=O)N(Cc1cccc(OC(F)(F)F)c1)c1sc2ccccc2c1C")
0.0
>>> class_label("CCS(=O)(=O)N(CC(F)F)c1sc2ccccc2c1C")
0.0
>>> class_label("COP(=O)(CCN(c1sc2ccccc2c1Br)S(=O)(=O)c1ccccc1)OC")
0.0
>>> class_label("O=S(=O)(c1ccccc1)N(Cc1ccc(F)cc1)c1sc2ccccc2c1Cl")
1.0
>>> class_label("COc1ccc(S(=O)(=O)N(Cc2ccc(F)c(C(F)(F)F)c2)c2sc3ccccc3c2C)c2cccnc12")
0.0
>>> class_label("O=C(O)c1ccc(S(=O)(=O)N(Cc2ccc(F)c(C(F)(F)F)c2)c2sc3ccccc3c2Br)c(F)c1")
1.0
>>> class_label("CS(=O)(=O)CCN(c1sc2ccccc2c1Cl)S(=O)(=O)c1ccccc1")
0.0
>>> class_label("O=S(=O)(c1cccnc1Cl)N(Cc1ccc(F)c(C(F)(F)F)c1)c1sc2ccccc2c1Br")
0.0
>>> class_label("O=S(=O)(c1ccccc1)N(Cc1ccc(F)c(F)c1)c1cc2cccnc2s1")
0.0
>>> class_label("CCS(=O)(=O)N(Cc1ccc(F)c(F)c1)c1cc2ccccc2s1")
0.0
>>> class_label("O=c1[nH]c(-c2ccc(S(=O)(=O)N(Cc3ccc(F)c(C(F)(F)F)c3)c3sc4ccccc4c3Cl)cc2)no1")
1.0
>>> class_label("Cc1c(N(Cc2ccc(F)c(F)c2)S(=O)(=O)c2ccc(C(=O)O)cc2)sc2ccccc12")
1.0
>>> class_label("O=[N+]([O-])c1cccc(CN(c2cc3ccccc3s2)S(=O)(=O)c2ccccc2)c1")
0.0
>>> class_label("COc1ncccc1S(=O)(=O)N(Cc1ccc(F)c(C(F)(F)F)c1)c1sc2ccccc2c1C")
0.0
>>> class_label("CCCCN(c1sc2ccccc2c1C(C)(C)O)S(=O)(=O)c1ccc(Br)cc1")
0.0
>>> class_label("O=C(O)c1ccc(S(=O)(=O)N(Cc2ccc(F)c(C(F)(F)F)c2)c2sc3ccccc3c2Br)cc1")
1.0
>>> class_label("O=S(=O)(c1ccc(O)cc1)N(Cc1ccc(F)c(C(F)(F)F)c1)c1sc2ccccc2c1Cl")
0.0
>>> class_label("CCCCN(c1sc2ccccc2c1Br)S(=O)(=O)c1ccc(N(C)C)cc1")
0.0
>>> class_label("CCS(=O)(=O)N(Cc1ccc(F)c(C(F)(F)F)c1)c1sc2ccccc2c1CNC")
0.0

* * *

In this section, each of the compounds is paired with its reported inhibition at 0.5 µM.
target: UniProtKB Q1A7N1; assay: In Vitro Canine TRPM8 Functional Assay (Ca2+ fluorescence, icilin activation); assay type: cell-based; conditions: compound at 0.5 μM; canine TRPM8, icilin activation; read-out: % Inh @ 0.5
Property label: inhibition at 0.5 µM (%)

>>> assay_result("COc1ccc(S(=O)(=O)N(Cc2ccc(F)c(C(F)(F)F)c2)c2sc3ccccc3c2Br)cc1")
99
>>> assay_result("O=S(=O)(c1ccccc1)N(Cc1ccccn1)c1cc2ccccc2s1")
99
>>> assay_result("O=S(=O)(c1cccnc1)N(Cc1ccc(F)c(C(F)(F)F)c1)c1sc2ccccc2c1Br")
101
>>> assay_result("O=S(=O)(c1cccc(F)c1)N(Cc1ccc(F)c(F)c1)c1sc2ccccc2c1Br")
99
>>> assay_result("Cc1c(N(Cc2ccc(F)c(F)c2)S(=O)(=O)Cc2ccccc2)sc2ccccc12")
45
>>> assay_result("O=S(=O)(c1cccnc1)N(Cc1ccc(F)c(F)c1)c1cc2ccccc2s1")
100
>>> assay_result("Cc1c(N(Cc2cccc3cccnc23)S(=O)(=O)c2cn(C)cn2)sc2ccccc12")
89
>>> assay_result("Cc1c(N(Cc2cccc3cccnc23)S(=O)(=O)c2cccc3cccnc23)sc2ccccc12")
98
